Hey, just so you know, these numbers are from paper PMC12005767.

Assay: Pharmacokinetic study in ICR mice (i.v. and p.o.)
Format: in vivo
Details: male, mouse, plasma, po, p.o. at 20 mg/kg, read-out: MRT0-inf
Method: Pharmacokinetics study was performed by Medicilon Preclinical Research (Shanghai) LLC. Male ICR mice, which were purchased from Sino‐British SIPPR Lab Animal Ltd., Shanghai (25–30 g, 14 weeks of age), were fasted overnight before administration and resumed food 6 h after initial plasma sampling. […]
Quantity measured: MRT inf (h)
// return numeric value only (unit: h, not printed)

Answer with the recorded MRT inf for the compound listed here: CCCCCOCCCCCNNC(=O)c1ccc(CNC(=O)c2ccccc2)cc1 [B6]
2.6

* * *

Assay: Pharmacokinetic study in ICR mice (i.v. and p.o.)
Type: in vivo
Details: male, mouse, po, p.o. at 20 mg/kg, plasma
Quantity measured: half-life
Give me the value, and tack the unit on after it.

Give recorded half-life. CCCCCOCCCCCNNC(=O)c1ccc(CNC(=O)c2ccccc2)cc1 [B6]
2.3 h

* * *

Biological target: HDAC9 (Homo sapiens)
Construct: purchased BPS Bioscience
Sequence (Q9UKV0 whole entry): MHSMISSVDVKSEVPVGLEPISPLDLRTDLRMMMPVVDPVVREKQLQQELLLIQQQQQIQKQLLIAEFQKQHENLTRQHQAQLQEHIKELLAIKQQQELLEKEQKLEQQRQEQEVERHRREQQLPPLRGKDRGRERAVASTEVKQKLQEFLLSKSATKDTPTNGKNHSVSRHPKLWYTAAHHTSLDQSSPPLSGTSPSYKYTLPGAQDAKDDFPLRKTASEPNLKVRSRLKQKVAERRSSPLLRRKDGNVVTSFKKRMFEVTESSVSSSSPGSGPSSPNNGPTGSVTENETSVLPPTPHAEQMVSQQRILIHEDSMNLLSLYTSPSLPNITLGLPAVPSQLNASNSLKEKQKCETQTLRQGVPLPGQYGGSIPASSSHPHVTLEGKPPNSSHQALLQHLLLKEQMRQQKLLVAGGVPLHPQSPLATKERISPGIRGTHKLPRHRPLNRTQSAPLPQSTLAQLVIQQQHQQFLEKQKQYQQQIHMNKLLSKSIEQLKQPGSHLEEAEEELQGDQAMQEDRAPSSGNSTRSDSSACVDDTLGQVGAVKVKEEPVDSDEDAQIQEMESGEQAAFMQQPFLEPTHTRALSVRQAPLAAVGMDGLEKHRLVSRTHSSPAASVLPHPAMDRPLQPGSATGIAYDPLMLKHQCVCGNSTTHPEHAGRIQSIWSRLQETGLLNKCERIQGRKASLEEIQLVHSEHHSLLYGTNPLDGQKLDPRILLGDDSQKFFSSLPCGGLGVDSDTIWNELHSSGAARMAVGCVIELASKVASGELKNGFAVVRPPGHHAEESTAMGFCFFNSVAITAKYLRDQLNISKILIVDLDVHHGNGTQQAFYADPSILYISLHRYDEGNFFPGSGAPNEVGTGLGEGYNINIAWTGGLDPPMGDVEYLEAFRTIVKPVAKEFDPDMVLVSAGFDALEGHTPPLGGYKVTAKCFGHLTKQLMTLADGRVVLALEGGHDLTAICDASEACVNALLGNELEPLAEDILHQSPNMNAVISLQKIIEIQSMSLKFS
Assay: In vitro HDACs inhibition fluorescence assay, HDAC9
Assay type: biochemical
Details: mean ± SEM
Protocol: In Vitro HDACs Inhibition Fluorescence Assay: For the inhibitory activity against HDAC1‐10, enzymes were also procured from BPS Bioscience. The in vitro […] inhibition assays were conducted following the established method described previously.^[ [45] ^] […] A standing period of 30 min was sufficient before assessing the fluorescence intensity.
Quantity measured: IC50

Annotate the compound "CCCCCOCCCCCNNC(=O)c1ccc(CNC(=O)c2ccccc2)cc1" with its measured IC50.
> 10 µM

* * *

Target: HDAC6 (Homo sapiens, UniProt Q9UBN7)
Sequence (Q9UBN7 1-1215): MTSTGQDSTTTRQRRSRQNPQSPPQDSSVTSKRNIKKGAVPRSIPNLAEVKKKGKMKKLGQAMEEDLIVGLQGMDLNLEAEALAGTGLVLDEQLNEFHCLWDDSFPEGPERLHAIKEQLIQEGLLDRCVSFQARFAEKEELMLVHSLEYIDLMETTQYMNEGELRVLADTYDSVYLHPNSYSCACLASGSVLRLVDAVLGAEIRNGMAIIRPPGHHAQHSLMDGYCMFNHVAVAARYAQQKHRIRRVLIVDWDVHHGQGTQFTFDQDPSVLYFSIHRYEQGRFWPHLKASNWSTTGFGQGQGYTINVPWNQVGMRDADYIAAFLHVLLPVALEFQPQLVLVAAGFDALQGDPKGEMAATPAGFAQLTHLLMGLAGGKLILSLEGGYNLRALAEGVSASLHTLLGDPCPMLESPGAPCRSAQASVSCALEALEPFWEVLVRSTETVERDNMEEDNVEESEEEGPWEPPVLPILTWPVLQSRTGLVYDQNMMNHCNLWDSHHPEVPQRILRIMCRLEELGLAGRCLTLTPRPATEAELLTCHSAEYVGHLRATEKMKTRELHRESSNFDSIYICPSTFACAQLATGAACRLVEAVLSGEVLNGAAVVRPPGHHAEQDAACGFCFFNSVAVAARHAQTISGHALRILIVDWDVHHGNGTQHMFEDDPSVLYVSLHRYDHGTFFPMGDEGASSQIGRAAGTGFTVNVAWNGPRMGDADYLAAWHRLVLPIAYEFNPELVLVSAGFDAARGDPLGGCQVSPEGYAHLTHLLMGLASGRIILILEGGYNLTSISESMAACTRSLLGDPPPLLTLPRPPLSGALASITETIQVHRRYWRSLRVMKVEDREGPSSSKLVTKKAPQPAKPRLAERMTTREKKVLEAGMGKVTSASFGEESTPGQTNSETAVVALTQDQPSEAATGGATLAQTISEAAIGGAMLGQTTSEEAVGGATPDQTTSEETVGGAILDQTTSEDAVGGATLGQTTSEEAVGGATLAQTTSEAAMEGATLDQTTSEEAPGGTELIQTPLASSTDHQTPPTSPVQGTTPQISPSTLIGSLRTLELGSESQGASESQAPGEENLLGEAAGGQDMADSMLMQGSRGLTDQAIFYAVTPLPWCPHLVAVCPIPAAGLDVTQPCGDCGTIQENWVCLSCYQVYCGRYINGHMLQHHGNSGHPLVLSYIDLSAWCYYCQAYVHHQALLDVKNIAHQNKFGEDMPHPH
Quantity measured: IC50

Specify IC50 for "CCCCCOCCCCCNNC(=O)c1ccc(CNC(=O)c2ccccc2)cc1" and stop.
> 10 µM
